# System: Mycoplasma putrefaciens
# experimental_protocol: Antimicrobial activity against Mycoplasma putrefaciens French isolates after 24 hrs by twofold serial dilution method
# Type: functional
readout_label: MIC50 (µg/mL)
Lab book: enter the figure in µg/mL, no units written.

# annotated cases, reported MIC50 shown
[[record]]
record_smiles = "CN[C@@H]1[C@H](O[C@H]2[C@H](O[C@H]3[C@H](O)[C@@H](O)[C@H](N=C(N)N)[C@@H](O)[C@@H]3N=C(N)N)O[C@@H](C)[C@]2(O)C=O)O[C@@H](CO)[C@H](O)[C@H]1O"
measurement_units = "µg/mL"
numeric_result = 32

[[record]]
record_smiles = "CN[C@@H]1[C@H](O)[C@H](NC)[C@H]2O[C@@]3(O)C(=O)C[C@@H](C)O[C@H]3O[C@@H]2[C@H]1O"
measurement_units = "µg/mL"
numeric_result = 16

[[record]]
record_smiles = "C[C@H]1c2cccc(O)c2C(=O)C2=C(O)[C@]3(O)C(=O)C(C(N)=O)=C(O)[C@@H](N(C)C)[C@@H]3[C@@H](O)[C@@H]21.O"
measurement_units = "µg/mL"
numeric_result = 0.25


Next item in the queue.
Name the reported MIC50 value associated with the molecule `CC[C@H]1OC(=O)[C@H](C)[C@@H](O[C@H]2C[C@@](C)(OC)[C@@H](O)[C@H](C)O2)[C@H](C)[C@@H](O[C@@H]2O[C@H](C)C[C@H](N(C)C)[C@H]2O)[C@](C)(O)C[C@@H](C)C(=O)[C@H](C)[C@@H](O)[C@]1(C)O`
0.03

====

# Tested on: Mycoplasma putrefaciens
# experimental_protocol: Antimicrobial activity against Mycoplasma putrefaciens KS1 after 24 hrs by twofold serial dilution method
# Assay type: functional
# condition_set: KS1, 24 h
readout_label: MIC (µg/mL)
Lab book: enter the figure in µg/mL, no units written.

# annotated cases, reported MIC shown
[[record]]
compound = "CC[C@H]1OC(=O)[C@H](C)[C@@H](O[C@H]2C[C@@](C)(OC)[C@@H](O)[C@H](C)O2)[C@H](C)[C@@H](O[C@@H]2O[C@H](C)C[C@H](N(C)C)[C@H]2O)[C@](C)(O)C[C@@H](C)C(=O)[C@H](C)[C@@H](O)[C@]1(C)O [ERYTHROMYCIN]"
numeric_result = 0.03

[[record]]
compound = "CCn1cc(C(=O)O)c(=O)c2ccc(C)nc21 [NALIDIXIC ACID]"
numeric_result = 512

[[record]]
compound = "O=C(N[C@H](CO)[C@H](O)c1ccc([N+](=O)[O-])cc1)C(Cl)Cl [CHLORAMPHENICOL]"
numeric_result = 4

[[record]]
compound = "CN[C@@H]1[C@H](O[C@H]2[C@H](O[C@H]3[C@H](O)[C@@H](O)[C@H](N=C(N)N)[C@@H](O)[C@@H]3N=C(N)N)O[C@@H](C)[C@]2(O)C=O)O[C@@H](CO)[C@H](O)[C@H]1O [STREPTOMYCIN]"
numeric_result = 64

[[record]]
compound = "CCC[C@@H]1C[C@@H](C(=O)N[C@@H]([C@H]2O[C@H](SC)[C@H](O)[C@@H](O)[C@H]2O)[C@@H](C)O)N(C)C1 [LINCOMYCIN]"
numeric_result = 1


Name the reported MIC value associated with the compound CN(C)[C@@H]1C(O)=C(C(N)=O)C(=O)[C@@]2(O)C(O)=C3C(=O)c4c(O)cccc4[C@@](C)(O)[C@H]3[C@H](O)[C@@H]12 [OXYTETRACYCLINE]
0.5

Name the reported MIC value associated with the compound CCn1cc(C(=O)O)c(=O)c2cc(F)c(N3CCNCC3)cc21 [NORFLOXACIN]
2
